Tested on: Intestine
Procedure Details: Biodistribution in NMRI mouse intestine at 3.7 MBq/mL, iv after 60 mins by gamma counting
Type: ADME, organism-based
Study Conditions: in vivo, 1 h
Result Type: Drug uptake (%ID)

Worked cases, Drug uptake given:
{"Compound": "[11CH3]Nc1ccc(-c2nc3ccc(O)cc3s2)cc1 [PITTSBURGH COMPOUND B]", "Numeric Readout": 42.5}
{"Compound": "COc1ccc2nc(-c3ccc([18F])cc3)sc2c1", "Numeric Readout": 34.3}

A = Oc1ccc2nc(-c3ccc([18F])cc3)sc2c1
B = Cc1ccc2nc(-c3ccc([18F])cc3)sc2c1
Request: Could you tell me which of A and B has the lower Drug uptake reading? Mark your selection by writing its label.
Result: B

====

Tested on: Lung
Procedure Details: Biodistribution in NMRI mouse lung assessed per gram of tissue at 3.7 MBq/mL, iv after 60 mins by gamma counting
Format: ADME, organism-based
Study Conditions: in vivo, 1 h
Result Type: Drug uptake (% ID/g)

{"Structure": "[11CH3]Nc1ccc(-c2nc3ccc(O)cc3s2)cc1", "Units Label": "% ID/g", "Drug uptake": 1.3}

1 = Cc1ccc2nc(-c3ccc([18F])cc3)sc2c1
2 = Oc1ccc2nc(-c3ccc([18F])cc3)sc2c1
3 = COc1ccc2nc(-c3ccc([18F])cc3)sc2c1
Request: // sort entries: Drug uptake, high to low Order the labels as requested and give them as your answer.
Result: 2, 3, 1

====

Procedure Details: Biodistribution in NMRI mouse spleen/pancreas assessed per gram of tissue at 3.7 MBq/mL, iv after 60 mins by gamma counting
Assay type: ADME, organism-based
Study Conditions: in vivo, 1 h
Result Type: Drug uptake (% ID/g)

1 = Cc1ccc2nc(-c3ccc([18F])cc3)sc2c1
2 = [11CH3]Nc1ccc(-c2nc3ccc(O)cc3s2)cc1 [PITTSBURGH COMPOUND B]
3 = Oc1ccc2nc(-c3ccc([18F])cc3)sc2c1
Request: Reorder the list above by recorded Drug uptake in ascending order. Respond with the label ranking, as requested.
Result: 1, 2, 3
